meta.source: patent US20060240015A1

biological target: T1, human insulin-like growth factor-I (human, UniProt P05019 49-118); assay: SPR (Biacore 2000), hIGF-I amine-coupled on CM-5, antibody as analyte, 25 C
T1 construct: mature; In the ELISAs it was coated as a conjugate with methylated BSA; in Biacore it was amine-coupled to a CM-5 chip; also called hIGF-I; IGF-I
T1 sequence (P05019 49-118): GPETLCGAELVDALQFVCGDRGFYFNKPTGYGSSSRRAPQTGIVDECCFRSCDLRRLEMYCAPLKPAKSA
parameter: Ka

>  <binder>
anti-hIGF CDR-grafted antibody QGAR/NYPLL3A11 (antibody, V domains shown, Human IgG1, kappa (pKANTEX93)) VH: EVQLVESGGGVVQPGRSLRLSCAASGFTFSNYYMTWVRQAPTKGLEWVAYISSGGGSTYYRDSVKGRFTISRDNSKNTLYLQMNSLRAEDTAVYYCTTEDYGYWFAYWGQGTLVTVSS VL: DIVMTQSPDSLAVSLGERATITCRASSSVSYMHWFQQKPGQSPKPWIYGTSKLASGVPDRFSGSGSGTSYSLTISSLQAEDAATYYCLQRSSYPPTFGQGTKVEIK

>  <parameter>
Ka

>  <meas.value>
2.32e+09 M⁻¹

$$$$
>  <binder>
anti-hIGF CDR-grafted antibody CamHV0/NYPLL3A11 (antibody, human IgG1, V domains shown) VH: QVQLVESGGGVVQPGRSLRLSCAASGFTFSNYYMTWVRQAPGKGLEWVAYISSGGGSTYYRDSVKGRFTISRDNSKNTLYLQMNSLRAEDTAVYYCAREDYGYWFAYWGQGTLVTVSS VL: DIVMTQSPDSLAVSLGERATITCRASSSVSYMHWFQQKPGQSPKPWIYGTSKLASGVPDRFSGSGSGTSYSLTISSLQAEDAATYYCLQRSSYPPTFGQGTKVEIK

>  <parameter>
Ka

>  <meas.value>
1.32e+09 M⁻¹

$$$$
